Origin of the recorded values: BigSolDB 2.1

- COND: in acetone, 298.15 K
READOUT TYPE: solubility (mole fraction)
Write no unit; give the number alone.

// solubility (mole fraction) value for Nc1ccc(Cl)nn1 : 0.00338

---

- COND: in DMF, 343.05 K
READOUT TYPE: solubility (mole fraction)
// response body must contain only the number

// solubility (mole fraction) lookup, compound = Nc1ccc(Cl)nn1 , result: 0.0904

---

- COND: in toluene, 333.15 K
READOUT TYPE: solubility (mole fraction)
Please respond with just the number, no unit label.

Recorded result, Nc1ccc(Cl)nn1 , solubility (mole fraction): 0.000293

---

- COND: in methanol, 313.15 K
READOUT TYPE: solubility (mole fraction)

The recorded solubility (mole fraction) for entry Nc1ccc(Cl)nn1 equals 0.00605
